- Tested on: L. donovani promastigotes
- protocol: Anti-leishmanial screening against L. donovani promastigotes at a single concentration (MTT)
- Type: cell-based, Leishmania donovani
- run-conditions: Leishmania donovani, 72 h, 72 h at 26 °C, MTT
readout-kind: inhibition at 100 µM

>>> df
                                   molecule  value_measured
0  Clc1ccc2c(N3CCN(c4cc(Sc5nnc(-c6ccccc6)c(-c6ccccc6)n5)ncn4)CC3)ccnc2c1 [T10]           22.4%
1  CC1CCN(c2cc(Sc3nnc(-c4ccccc4)c(-c4ccccc4)n3)ncn2)CC1 [T7]           > 90%
2  c1ccc(-c2nnc(Sc3cc(N4CCOCC4)ncn3)nc2-c2ccccc2)cc1 [T6]           43.9%
3  CCOC(=O)c1cnc2ccc(C)cc2c1Sc1nnc(-c2ccccc2)c(-c2ccccc2)n1 [T3]           < 90%
4  CCOC(=O)c1cnc2ccc(OC)cc2c1Sc1nnc(-c2ccccc2)c(-c2ccccc2)n1 [T2]           < 90%

----------
- Tested on: L. donovani amastigotes
- protocol: Anti-amastigote assay in infected THP-1 macrophages (Giemsa)
- Format: cell-based, Leishmania donovani
- run-conditions: 50 μM
Attribute: Percentage reduction of parasites (amastigote)
readout-kind: Percentage reduction of parasites (amastigote) (%)

compound	value-measured
CCCCCCCCCCCCCCCCOP(=O)([O-])OCC[N+](C)(C)C [MTF, miltefosine, reference compound]	74
C[C@@H]1[C@H](O)[C@@H](C)/C=C/C=C/C=C/C=C/C=C/C=C/C=C/[C@H](O[C@@H]2O[C@H](C)[C@@H](O)[C@H](N)[C@@H]2O)C[C@@H]2O[C@](O)(C[C@@H](O)C[C@@H](O)[C@H](O)CC[C@@H](O)C[C@@H](O)CC(=O)O[C@H]1C)C[C@H](O)[C@H]2C(=O)O [Ampho B, Amphotericin B, reference compound]	82.5
CC1CCN(c2cc(Sc3nnc(-c4ccccc4)c(-c4ccccc4)n3)ncn2)CC1 [T7]	70.6
COc1ccc(C(=O)CCSc2nnc(-c3ccccc3)c(-c3ccccc3)n2)cc1OC [T4]	74

----------
Entries and their Percentage reduction of parasites (amastigote) values follow.
- Tested on: L. donovani amastigotes
- protocol: Anti-amastigote assay in infected THP-1 macrophages (Giemsa)
- Format: cell-based, Leishmania donovani
- run-conditions: 25 μM
- Procedure: To evaluate the anti-leishmanial effect of the compound T4 and T7 on intracellular L. donovani parasites, macrophage was infected with stationary -phase L. donovani for 6 h. The cells were then washed with saline to remove any non-internalised parasites. […]
readout-kind: Percentage reduction of parasites (amastigote) (%)

molecule	assay-target	reading-unit	value-measured
C[C@@H]1[C@H](O)[C@@H](C)/C=C/C=C/C=C/C=C/C=C/C=C/C=C/[C@H](O[C@@H]2O[C@H](C)[C@@H](O)[C@H](N)[C@@H]2O)C[C@@H]2O[C@](O)(C[C@@H](O)C[C@@H](O)[C@H](O)CC[C@@H](O)C[C@@H](O)CC(=O)O[C@H]1C)C[C@H](O)[C@H]2C(=O)O [Ampho B, Amphotericin B, reference compound]	L. donovani amastigotes	%	79.44
COc1ccc(C(=O)CCSc2nnc(-c3ccccc3)c(-c3ccccc3)n2)cc1OC	L. donovani amastigotes	%	70
CC1CCN(c2cc(Sc3nnc(-c4ccccc4)c(-c4ccccc4)n3)ncn2)CC1	L. donovani amastigotes	%	66
CCCCCCCCCCCCCCCCOP(=O)([O-])OCC[N+](C)(C)C [MTF, miltefosine, reference compound]	L. donovani amastigotes	%	73
